Taken from ChEMBL document CHEMBL1201862.

Test system: A549
Experiment: NCI tumour cell line growth inhibition, 48 h
Activity calls are given as the source filed them. No stated cut-off is given here; in the data, active = GI50 up to about 1.1 µM and inactive = higher.
Return exactly one item of 1.0 (active), 0.0 (inactive)

Use these answered entries as a reference point.
# compound, experimental_system, qualitative_label
measured = [
    ("CCc1cccc(C(C)C)c1NC(=O)C(=O)C1C(=O)NC(=O)NC1=O", "A549", 0.0),
    ("Cn1c(=O)c2[nH]cnc2n(CC(=O)O)c1=O", "A549", 0.0),
]

Outcome logged for CN(C)CCCNc1ccc([N+](=O)[O-])c2nc3ccccc3c(N)c12 in this assay:
1.0

Outcome logged for C=C(C)C1CC2=C(O1)C(=O)c1cccc(O)c1C2=O (configuration not stated) in this assay:
0.0

Outcome logged for O=C(Cc1c(C(=O)Nc2ccccc2)sc(C(=O)Nc2ccccc2)c1CC(=O)Nc1ccccc1)Nc1ccccc1 in this assay:
0.0

Outcome logged for COc1ccc2[nH]c3c(cnn4cnnc34)c2c1 in this assay:
0.0

Outcome logged for C[C@]12CCC(=O)C(O)=C1CC[C@@H]1[C@@H]2CC[C@]2(C)C(=O)CC[C@@H]12 [FORMESTANE] in this assay:
0.0

Outcome logged for COc1ccc2c(c1)C(N)CC2=O (configuration not stated) in this assay:
0.0

Outcome logged for O=C(O)c1ccc([C@@H]2C(=O)N(O)[C@@H]3C=CC[C@@H]32)cc1 in this assay:
0.0

Outcome logged for CC(C)(C)[Si](C)(C)OCC1OC(n2cnc3c(N)ncnc32)C(O[Si](C)(C)C(C)(C)C)C1O[Si](C)(C)C(C)(C)C (configuration not stated) in this assay:
0.0

Outcome logged for CC(=O)CC(OC(C)=O)C1=CCC2C(CC1C)OC(=O)C2C (configuration not stated) in this assay:
0.0

Outcome logged for CC[C@]12CCCN3CCc4c(n(c5ccccc45)C(=O)C1)[C@@H]32 [VINBURNINE] in this assay:
0.0
